# credit: patent US10611750B2

IC50: recorded values
Target: BRD4 Bromodomain 1 (BRD4 BD1) (Homo sapiens)
Construct: 44-168 and BRD4 BD2
Experiment: AlphaScreen binding assay, BRD4 BD1
Conditions: His-tagged BRD4 BD1 50 nM, biotinylated H4 (1-21) K5/8/12/16 tetra-acetylated peptide 50 nM, compounds listed under IC50 range headings
Method: The binding of Example compounds to BRD4 Bromodomain 1 and BRD4 Bromodomain 2 was assessed using 384-well AlphaScreen assay technology. His-epitope tagged BRD4 BD144-168 and BRD4 BD2333-460 were cloned, expressed, and purified to homogeneity. BRD4 BD1 and BRD4 BD2 binding and inhibition was assessed by monitoring the engagement of biotinylated Histone H4 (1-21) K5/8/12/16 tetra-acetylated peptide with the targets using the AlphaScreen technology (PerkinElmer). […]

Measured IC50 (BRD4 Bromodomain 1 (BRD4 BD1) (Homo sapiens)), entry `CC(=O)N1c2ccc(-c3cnn(C4CCNCC4)c3)c(Oc3ccc(C(F)(F)F)cn3)c2CC[C@@H]1C` : 0.1 to 1 µM

Measured IC50 (BRD4 Bromodomain 1 (BRD4 BD1) (Homo sapiens)), entry `CC(=O)N1c2ccc(-c3cnn(C4CC4)c3)c(Oc3ccc(C#N)cc3)c2CC[C@@H]1C` : 0.1 to 1 µM

Measured IC50 (BRD4 Bromodomain 1 (BRD4 BD1) (Homo sapiens)), entry `COC(=O)N1c2ccc(-c3cnn(CC(C)(C)O)c3)c(OC3CCC3)c2CC[C@@H]1C` : 1 to 10 µM

Measured IC50 (BRD4 Bromodomain 1 (BRD4 BD1) (Homo sapiens)), entry `COC(=O)N1c2ccc(-c3cnn(C4CNC4)c3)c(Oc3cccc(F)c3F)c2CC[C@@H]1C` : 0.1 to 1 µM

Measured IC50 (BRD4 Bromodomain 1 (BRD4 BD1) (Homo sapiens)), entry `COC(=O)N1c2ccc(-c3cnn(CCO)c3)c(Oc3ncc(C4CC4)cn3)c2CC[C@@H]1C` : 1 to 10 µM

Measured IC50 (BRD4 Bromodomain 1 (BRD4 BD1) (Homo sapiens)), entry `C[C@H]1CCc2c(ccc(-c3cnn(C4CNC4)c3)c2Oc2cccc(Cl)c2)N1C(=O)C1CC1` : 0.1 to 1 µM

Measured IC50 (BRD4 Bromodomain 1 (BRD4 BD1) (Homo sapiens)), entry `COC(=O)N1c2ccc(-c3cnn(C4CN(C)C4)c3)c(OC3CCC3)c2CC[C@@H]1C` : 1 to 10 µM

Measured IC50 (BRD4 Bromodomain 1 (BRD4 BD1) (Homo sapiens)), entry `CC(=O)N1c2c(F)cc(-c3cnn(C4CCNCC4)c3)c(OC3CCC3)c2CC[C@@H]1C` : 0.1 to 1 µM
